Target: human ether-à-go-go-related gene (hERG) potassium channel (human, UniProt Q12809)
Sequence (Q12809 whole entry, looked up): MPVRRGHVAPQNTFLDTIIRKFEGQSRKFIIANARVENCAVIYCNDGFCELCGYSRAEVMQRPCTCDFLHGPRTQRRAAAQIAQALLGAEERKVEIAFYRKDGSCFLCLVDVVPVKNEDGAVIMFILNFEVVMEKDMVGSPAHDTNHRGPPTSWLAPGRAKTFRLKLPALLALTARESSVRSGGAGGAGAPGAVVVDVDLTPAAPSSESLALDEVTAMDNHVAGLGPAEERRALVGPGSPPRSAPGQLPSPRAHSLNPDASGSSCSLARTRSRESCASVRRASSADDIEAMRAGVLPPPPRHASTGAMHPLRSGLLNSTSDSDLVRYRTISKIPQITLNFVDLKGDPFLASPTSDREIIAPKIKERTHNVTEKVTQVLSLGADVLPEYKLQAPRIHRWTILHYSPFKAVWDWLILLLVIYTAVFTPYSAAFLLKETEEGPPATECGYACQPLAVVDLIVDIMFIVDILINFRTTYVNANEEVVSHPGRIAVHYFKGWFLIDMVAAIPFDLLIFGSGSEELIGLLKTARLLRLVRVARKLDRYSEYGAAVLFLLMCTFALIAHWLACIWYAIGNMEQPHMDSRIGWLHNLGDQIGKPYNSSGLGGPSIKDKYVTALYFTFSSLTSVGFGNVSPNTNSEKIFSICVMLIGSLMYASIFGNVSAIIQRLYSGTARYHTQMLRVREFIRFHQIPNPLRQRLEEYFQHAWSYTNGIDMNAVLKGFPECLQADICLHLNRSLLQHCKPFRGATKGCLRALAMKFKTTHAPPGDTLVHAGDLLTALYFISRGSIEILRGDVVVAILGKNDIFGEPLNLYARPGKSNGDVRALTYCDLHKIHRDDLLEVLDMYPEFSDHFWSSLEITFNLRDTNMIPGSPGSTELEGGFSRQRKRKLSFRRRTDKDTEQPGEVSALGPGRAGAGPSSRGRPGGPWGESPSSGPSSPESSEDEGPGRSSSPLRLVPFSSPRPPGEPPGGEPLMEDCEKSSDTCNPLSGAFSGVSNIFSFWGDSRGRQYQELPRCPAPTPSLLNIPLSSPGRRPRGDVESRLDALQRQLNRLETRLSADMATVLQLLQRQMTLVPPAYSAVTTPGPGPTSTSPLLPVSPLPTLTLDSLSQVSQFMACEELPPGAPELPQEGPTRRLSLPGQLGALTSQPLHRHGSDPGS
Measurement description: primary screen, population patch clamp on CHO cells stably expressing hERG; higher = less effect of the substance
In all, about 310,000 compounds went through this assay and about 2,200 (0.71%) showed an effect of 50% or more. The effect is printed as a negative number. This is one part of a sample in which strong results are shown more often than they occur.
Attribute measured: hERG current change (%, negative = inhibition) at 1uM (%)
Numeric answer only, unit % assumed.

Below, 8 compounds whose answers are already recorded.
• CCOc1ccc(C(=O)NC(=S)Nc2ccccc2N2CCCCC2)cc1[N+](=O)[O-] = 8.22
• Cc1cccc(-n2c(C)nc3cc(C(=O)N4CCC5(CC4)OCCO5)ccc32)c1 = -14.2
• CCOc1ccc(C(=O)Nc2ccccc2N2CCN(C(=O)c3ccccc3)CC2)cc1[N+](=O)[O-] = -84
• O=C(O)C(=O)O.O=[N+]([O-])c1ccc(S(=O)(=O)N2CCN(C3CCN(Cc4ccccc4)CC3)CC2)cc1 = -78.1
• COc1ccc(OCCSc2nc(N)cc(N)n2)cc1 = -5.65
• COc1ccc(CNc2nc3c(c(=O)n(Cc4ccc(Br)cc4)c(=O)n3C)n2C)cc1 = -10.5
• O=C(CC(=O)N/N=C/c1ccccc1)NCc1ccccc1 = 8.85
• CN1CCN(c2ccccc2NC(=O)c2cccc([N+](=O)[O-])c2)CC1 = -67.1

// hERG current change (%, negative = inhibition) at 1uM lookup, key: `Cc1ccc(S(=O)(=O)N2CCN(Cc3ccccc3)CC2)cc1`
10

// hERG current change (%, negative = inhibition) at 1uM lookup, key: `O=C(Nc1ccccc1N1CCOCC1)c1cccc([N+](=O)[O-])c1`
2.37

// hERG current change (%, negative = inhibition) at 1uM lookup, key: O=C(Cn1cnc2c(oc3ccccc32)c1=O)NCC1CCCO1 (stereo not shown)
9.36

// hERG current change (%, negative = inhibition) at 1uM lookup, key: Cc1ccc(C)c(NC(=O)C2CC(O)CN2C(=O)OCc2ccccc2)c1 (stereo not shown)
2.34

// hERG current change (%, negative = inhibition) at 1uM lookup, key: `CCc1ccccc1NC(=O)/C(=C/c1ccccc1)c1ccccc1`
-4.2

// hERG current change (%, negative = inhibition) at 1uM lookup, key: `O=C(Nc1ccccc1N1CCCCC1)c1cccc([N+](=O)[O-])c1`
9.68

// hERG current change (%, negative = inhibition) at 1uM lookup, key: `O=C(Cc1ccccc1)N1CCN(S(=O)(=O)c2ccc([N+](=O)[O-])cc2)CC1`
-24.6

* * *

Target: human ether-à-go-go-related gene (hERG) potassium channel (human, UniProt Q12809)
Measurement description: primary screen, population patch clamp on CHO cells stably expressing hERG; higher = less effect of the substance
The campaign covered roughly 310,000 compounds. About 2,200 (0.71%) showed an effect of 50% or more. The effect is printed as a negative number. The entries come from a sample that favours strong results as a whole.
hERG current change (%, negative = inhibition) at 1uM listing for selected compounds.
Numeric answer only, unit % assumed.

* Cc1ccc(OCCNC(=O)c2ccc(NC(=O)CC3SC(N4CCCC4)=NC3=O)cc2)cc1 (stereo not drawn) | -6.94
* O=C(Nc1ccnn1C1CCN(C/C=C/c2ccc(F)cc2)CC1)C1CCCC1 | -79.3
* O=C(Nc1ccnn1C1CCN(Cc2cccc(F)c2F)CC1)C1CCCC1 | 8
* O=C(CCc1ccccc1)Nc1sc2c(c1C(=O)O)CCCC2 | 20.1

// hERG current change (%, negative = inhibition) at 1uM lookup, key: `C/C(=N\NC(=O)c1cccc(F)c1)c1ccc(NC(=O)Cc2ccccc2)cc1`
12.8

// hERG current change (%, negative = inhibition) at 1uM lookup, key: COc1cc(C(CCN2CCCCC2)c2c(OC)cc(OC)c3c(C)cc(=O)oc23)cc(OC)c1OC (stereo not drawn)
-96.3

// hERG current change (%, negative = inhibition) at 1uM lookup, key: COc1cc(C(CCN2CCCCC2)c2c(OC)cc(OC)c3c(-c4ccccc4)cc(=O)oc23)cc(OC)c1OC (stereo not drawn)
-12

// hERG current change (%, negative = inhibition) at 1uM lookup, key: `COC(=O)c1ccc(Cn2nc(C)c([N+](=O)[O-])c2C)o1`
2.01

// hERG current change (%, negative = inhibition) at 1uM lookup, key: COc1cc(C(CCN2CCN(c3ccccc3)CC2)c2c(OC)cc(OC)c3c(C)cc(=O)oc23)cc(OC)c1OC (stereo not drawn)
9.23

// hERG current change (%, negative = inhibition) at 1uM lookup, key: COc1cc(C(CCN2CCOCC2)c2c(OC)cc(OC)c3c(C)cc(=O)oc23)cc(OC)c1OC (stereo not drawn)
-70.3

// hERG current change (%, negative = inhibition) at 1uM lookup, key: `O=C(/C=C/c1ccc([N+](=O)[O-])cc1)NCCN1C(=O)S/C(=C\c2ccc(F)cc2)C1=O`
2.19

* * *

hERG current change (%, negative = inhibition) at 1uM listing for selected compounds.
Target: human ether-à-go-go-related gene (hERG) potassium channel (human)
Measurement description: primary screen, population patch clamp on CHO cells stably expressing hERG; higher = less effect of the substance
From the text: Briefly, Chinese hamster ovary (CHO) cells stably expressing the hERG channel were dislodged from tissue culture flasks and dispensed into PPC plates. […] Small molecule effects on hERG current density were quantified by […].
Screen size: about 310,000 compounds; about 2,200 (0.71%) showed an effect of 50% or more. The effect is printed as a negative number. Shown is part of a subset that was picked to be rich in strong results.
Numeric answer only, unit % assumed.

// hERG current change (%, negative = inhibition) at 1uM lookup, key: `Cc1ccc(S(=O)(=O)NCCOCCNS(=O)(=O)c2ccc(C)cc2)cc1`
-2.18

* * *

Target: human ether-à-go-go-related gene (hERG) potassium channel (human, UniProt Q12809)
Measurement description: primary screen, population patch clamp on CHO cells stably expressing hERG; higher = less effect of the substance
Among all 310,000 compounds or so, about 2,200 (0.71%) showed an effect of 50% or more. The effect is printed as a negative number. Shown is part of a subset that was picked to be rich in strong results.
hERG current change (%, negative = inhibition) at 1uM listing for selected compounds.
Numeric answer only, unit % assumed.

• COc1cc(C(=O)NC2CCN(Cc3ccccc3)CC2)cc(Cl)c1OC = -1.24
• COc1cc(NC(=O)CCN2CCN(C/C=C/c3ccccc3)CC2)cc(OC)c1 = -36.8
• O=C(CS(=O)(=O)Cc1ccccc1)Nc1ncccn1 = 13
• CCNc1nc(SCC(=O)OC)nc(N(C)C)n1 = -1.18

// hERG current change (%, negative = inhibition) at 1uM lookup, key: `Cc1c(CCOC(=O)CC23CC4CC(CC(C4)C2)C3)sc[n+]1CC(=O)c1ccccc1.[Br-]`
-6.04

// hERG current change (%, negative = inhibition) at 1uM lookup, key: `O=C(CCN1CCN(C/C=C/c2ccccc2)CC1)Nc1cccc(F)c1`
-62.6

// hERG current change (%, negative = inhibition) at 1uM lookup, key: `COCCNC(=O)c1cccc(OC2CCN(Cc3ccc(F)c(OC)c3)CC2)c1`
4.26

// hERG current change (%, negative = inhibition) at 1uM lookup, key: `CC(C)C[C@H](NC(=O)c1[nH]cnc1C(=O)N[C@@H](Cc1ccccc1)C(=O)OCc1ccccc1)C(=O)OCc1ccccc1`
10.2

// hERG current change (%, negative = inhibition) at 1uM lookup, key: `COCCNC(=O)c1cccc(OC2CCN(Cc3ccc(OC(F)F)cc3)CC2)c1`
-75.4

// hERG current change (%, negative = inhibition) at 1uM lookup, key: `CCCc1ccc2c(N)c(C#N)sc2n1`
1.34

// hERG current change (%, negative = inhibition) at 1uM lookup, key: CC(OC(=O)CCC1CCCCC1)C(=O)Nc1ccc(S(N)(=O)=O)cc1 (stereo not drawn)
9.83

* * *

Target: human ether-à-go-go-related gene (hERG) potassium channel (human, UniProt Q12809)
Measurement description: primary screen, population patch clamp on CHO cells stably expressing hERG; higher = less effect of the substance
Out of some 310,000 compounds screened, about 2,200 (0.71%) showed an effect of 50% or more. The effect is printed as a negative number. For the sample, strong results were picked, then their nearest neighbours and some compounds at random.
Attribute measured: hERG current change (%, negative = inhibition) at 1uM (%)
Numeric answer only, unit % assumed.

* CCN(CC(=O)NCCc1ccc(F)cc1)Cc1nc2ccccc2c(=O)[nH]1 | 1.66

// next item, hERG current change (%, negative = inhibition) at 1uM requested
// hERG current change (%, negative = inhibition) at 1uM lookup, key: `O=C(N/C(=C\c1ccccc1)C(=O)N1CCCCC1)c1ccc(Br)o1`
-0.538
